Target: Acetylcholinesterase (Homo sapiens) (UniProt P22303)
Sequence (P22303 whole entry, looked up): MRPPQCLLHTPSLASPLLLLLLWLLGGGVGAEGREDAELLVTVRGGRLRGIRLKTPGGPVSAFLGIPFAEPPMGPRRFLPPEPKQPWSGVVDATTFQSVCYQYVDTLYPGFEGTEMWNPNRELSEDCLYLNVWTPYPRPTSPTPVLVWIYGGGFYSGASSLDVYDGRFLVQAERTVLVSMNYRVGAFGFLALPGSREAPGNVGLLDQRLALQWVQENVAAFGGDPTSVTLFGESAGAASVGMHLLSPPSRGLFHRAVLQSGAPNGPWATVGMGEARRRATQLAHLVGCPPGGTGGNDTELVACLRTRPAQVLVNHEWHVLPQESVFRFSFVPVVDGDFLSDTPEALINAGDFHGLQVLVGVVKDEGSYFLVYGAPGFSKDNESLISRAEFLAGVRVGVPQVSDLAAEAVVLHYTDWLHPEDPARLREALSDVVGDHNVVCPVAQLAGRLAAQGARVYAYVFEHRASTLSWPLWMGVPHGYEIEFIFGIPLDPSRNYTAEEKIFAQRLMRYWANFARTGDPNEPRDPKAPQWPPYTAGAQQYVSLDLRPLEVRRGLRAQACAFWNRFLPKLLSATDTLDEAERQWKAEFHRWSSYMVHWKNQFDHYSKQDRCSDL
Experiment: Acetylcholinesterase (AChE) small molecule antagonists: enzyme-based qHTS assay with human liver microsomes (AID 1347399); also: nearly all actives have a fitted effect of over 60% in size
Conditions: qHTS inhibition; series mostly up to 115 µM
Activity calls are given as the source filed them. Calls follow the shape of the full dose curve.
measurement.name: outcome

{"columns": ["compound", "target", "outcome"],
 "data": [
  ["C/C=C1/CC2C=CC1C2 (stereo unspecified)", "Acetylcholinesterase (Homo sapiens) (UniProt P22303)", "inactive"],
  ["CCCc1c(OCCCCc2nn[nH]n2)ccc(C(C)=O)c1O", "Acetylcholinesterase (Homo sapiens) (UniProt P22303)", "inactive"],
  ["CCCCCCCC/C=C\\CCCCCCCC(=O)NCc1ccc(O)c(OC)c1", "Acetylcholinesterase (Homo sapiens) (UniProt P22303)", "inactive"],
  ["CN(C)[C@@H]1C(=O)C(C(=O)NCN2CCCC2)=C(O)[C@@]2(O)C(=O)C3=C(O)c4c(O)cccc4[C@@](C)(O)C3C[C@@H]12 (stereo partly specified)", "Acetylcholinesterase (Homo sapiens) (UniProt P22303)", "inactive"],
  ["COC(=O)c1ccc(C(=O)OC)cc1", "Acetylcholinesterase (Homo sapiens) (UniProt P22303)", "inactive"]
]}

Query block: Bench note: what outcome did CN=C(NC#N)NCCSCc1nc[nH]c1C show?
Result block: inactive

Query block: Moving on to CCNCCO
Result block: inactive

Query block: Moving on to COC(=O)C1=C(C)NC(C)=C(C(=O)OCC(C)C)C1c1ccccc1[N+](=O)[O-] (stereo unspecified)
Result block: inactive

Query block: Moving on to CCCCC/C=C\C/C=C\CCCCCCCC(=O)OC
Result block: inactive

Query block: Moving on to C[C@]12CC[C@@H]3c4ccc(O)cc4C[C@@H](CCCCCCCCCS(=O)CCCC(F)(F)C(F)(F)F)[C@H]3[C@@H]1CC[C@@H]2O (stereo partly specified)
Result block: inactive

Query block: Moving on to CCCCOCCOCCOCCO
Result block: inactive

* * *

Experiment: qHTS assay for small molecule disruptors of the mitochondrial membrane potential (AID 720635)
Settings: HepG2 mitochondrial membrane potential, Mito-MPS dye ratio; series mostly up to 83.2 µM
Excerpt: U.S. Tox21 Program National Center for Advancing Translational Sciences [NCATS] NIH Chemical Genomics Center [NCGC] U.S. Environmental Protection Agency [EPA] National Institutes of Environmental Health Sciences [NIEHS] National Toxicology Program [NTP] U.S. Food and Drug Administration [FDA] […] The dye accumulates in the mitochondria of healthy cells as aggregates, with red fluorescence. […]
Inconclusive results are not listed. The source made the active and inactive calls. The call rests on the fitted dose curve; in most records, active means well fitted inhibition curve with a large enough effect in the signal ratio in the repeat runs; inconclusive means weak or mixed curves, or effect the other way; inactive means flat fitted curve, though single readings scatter; the % refers to the signal ratio.
Choose one outcome from this list and give only that: active, inactive

See these solved cases before continuing.
{"columns": ["compound", "class.assignment"],
 "data": [
  ["CCOc1ccc2c3c1O[C@H]1[C@@H](O)C=C[C@H]4[C@@H](C2)N(C)CC[C@@]341", "inactive"],
  ["ClC1=C(Cl)[C@]2(Cl)[C@@H]3[C@@H](Cl)[C@H]4O[C@H]4[C@@H]3C1(Cl)C2(Cl)Cl", "active"]
]}

Query block: # fetch the recorded call for C[N+]1([O-])[C@@H]2CC[C@H]1CC(OC(=O)C(CO)c1ccccc1)C2 (stereo partly specified) here
Result block: inactive

Query block: Moving on to CN1CC[C@@]23CCCC[C@@H]2[C@@H]1Cc1ccc(O)cc13
Result block: inactive

Query block: Moving on to O=S(=O)(O)c1cc(O)ccc1O
Result block: inactive

Query block: Moving on to OC[C@@H](O)[C@H]1O[C@@H]2O[C@@H](C(Cl)(Cl)Cl)O[C@@H]2[C@H]1O
Result block: inactive

Query block: Moving on to [S]=[Sb](=[S])[S][Sb](=[S])=[S]
Result block: inactive

Query block: Moving on to CN1CSC(=S)N(C)C1
Result block: inactive

Query block: Moving on to COC(=O)[C@H]1[C@@H](OC(=O)c2ccccc2)C[C@@H]2CC[C@H]1N2C
Result block: inactive

Query block: Moving on to CC(C)=CCN1CC[C@]2(C)c3cc(O)ccc3C[C@H]1[C@H]2C
Result block: inactive

Query block: Moving on to Nc1ccc([N+](=O)[O-])cc1
Result block: active

Query block: Moving on to O=C(CS(=O)C(c1ccccc1)c1ccccc1)NO (stereo unspecified)
Result block: inactive

* * *

Tested on: estrogen-related receptor alpha (ERRalpha) with PGC-1alpha coactivator, human
Test: qHTS assay to identify small molecule antagonists of the estrogen related receptor signaling pathway with the pleiotropic PPARgamma coactivator (PGC) (AID 1224821); also: nearly all actives have a fitted effect of over 50% in size
Conditions: ERR/PGC reporter cell line, luciferase, antagonist mode; series mostly up to 46.1 µM
Records with an inconclusive call do not appear. The source made the active and inactive calls. The call rests on the fitted dose curve.
Choose one outcome from this list and give only that: active, inactive

See these solved cases before continuing.
{"columns": ["compound", "class.assignment"],
 "data": [
  ["CC(=O)[C@H]1CCC2C3CC[C@H]4C[C@H](O)CC[C@]4(C)C3CC[C@@]21C (some centres undefined)", "inactive"],
  ["NC(Cc1cc(O)c(O)cc1O)C(=O)O (centres undefined)", "inactive"],
  ["C[C@@H]1O[C@H](C[N+](C)(C)C)C[C@H]1O", "inactive"],
  ["CN1C2CCC1CC(OC(c1ccccc1)c1ccccc1N)C2 (centres undefined)", "inactive"],
  ["N#C/C(=C/c1ccc(O)c(O)c1)C(N)=S", "inactive"],
  ["NCCc1c[nH]c2ccc(C(N)=O)cc12", "inactive"],
  ["CCCN(CCC)[C@@H]1CCc2cccc(O)c2C1", "inactive"],
  ["O=c1ccc2[nH]cc(C3=CCNCC3)c2[nH]1", "inactive"],
  ["CC(C)NP(=O)(NC(C)C)OP(=O)(NC(C)C)NC(C)C", "inactive"],
  ["CC(N)c1cccc(Cl)c1Cl (centres undefined)", "inactive"]
]}

Query block: # fetch the recorded call for O=C1CCCN1CC#CCN1CCCC1 here
Result block: inactive

Query block: Moving on to CC(C)(C)c1cc(C=C(C#N)C#N)cc(C(C)(C)C)c1O
Result block: active

Query block: Moving on to CCCN(CCC)CCc1ccc(O)c(O)c1
Result block: inactive

Query block: Moving on to NC(=NCCC[C@H](N)C(=O)O)N[N+](=O)[O-]
Result block: inactive

Query block: Moving on to CCCN(CCC)C1Cc2cc(OC)c(OC)cc2C1
Result block: inactive

Query block: Moving on to O=C1/C(=C/c2ccccc2)C[C@@]2(O)[C@H]3Cc4ccc(O)c5c4[C@@]2(CCN3CC2CC2)[C@H]1O5
Result block: active

* * *

Test: qHTS assay for small molecules that induce genotoxicity in human embryonic kidney cells expressing luciferase-tagged ATAD5 (AID 651632); also: nearly all actives have a fitted effect of over 15% in size
Conditions: HEK293T ATAD5-luciferase induction, 16 h; series mostly up to 83.3 µM
Results filed as inconclusive are left out. The source made the active and inactive calls. Calls follow the shape of the dose curve; as a rule, active = well fitted activation curve with a large enough effect in the repeat runs; inconclusive = weak or mixed curves; inactive = no such curve, though single readings can be large or run the other way.
Choose one outcome from this list and give only that: TRUE = active, FALSE = inactive

{"columns": ["molecule", "class.assignment"],
 "data": [
  ["CN1CCCC(=C(c2cccs2)c2cccs2)C1", "FALSE"],
  ["O=C(Nc1ccccc1-c1ccc(Cl)cc1)c1cccnc1Cl", "FALSE"],
  ["C[C@H]1[C@H]2Cc3ccc(O)cc3[C@]1(C)CCN2CCc1ccccc1", "FALSE"],
  ["CC(C)[C@H]1C(=O)N2CCC[C@H]2[C@]2(O)O[C@](NC(=O)[C@@H]3C[C@@H]4c5cccc6[nH]cc(c56)C[C@H]4N(C)C3)(C(C)C)C(=O)N12", "FALSE"],
  ["Oc1cccc[c]1[Hg][Cl]", "FALSE"],
  ["COc1ccc2c3c1O[C@H]1[C@@H](O)C=C[C@H]4[C@@H](C2)NCC[C@@]341", "FALSE"],
  ["CCC/C=C/C=C/C(=O)O[C@H]1/C(=C/C(=O)OC)C[C@H]2C[C@H]([C@@H](C)O)OC(=O)C[C@H](O)C[C@@H]3C[C@H](OC(C)=O)C(C)(C)[C@](O)(C[C@@H]4C/C(=C/C(=O)OC)C[C@H](/C=C/C(C)(C)[C@]1(O)O2)O4)O3", "TRUE"],
  ["CCOC(=O)C1(c2ccccc2)CCCN(C)CC1 (centres undefined)", "FALSE"]
]}

Next molecule, please.
Query block: # fetch the recorded call for C[C@]12CCC(=O)C=C1C=C[C@@H]1[C@@H]2CC[C@@]2(C)[C@H]1CC[C@@]2(O)CCC(=O)O here
Result block: FALSE

* * *

Experiment: qHTS assay for identifying genotoxic compounds that show differential cytotoxicity against isogenic chicken DT40 cell lines with known DNA damage response pathways - Rad54/Ku70 mutant cell line (AID 743015); also: nearly all actives have a fitted effect of over 60% in size; also: potency is read from the fitted curve at half-maximal effect
Conditions: DT40 Rad54/Ku70 mutant viability, CellTiter-Glo, 40 h; series mostly up to 66.8 µM
Inconclusive results are not listed. Active and inactive are the calls of the source. Calls follow the shape of the dose curve; as a rule, active = well fitted cell-killing curve with a large enough effect in the repeat runs; inconclusive = weak or mixed curves; inactive = no such curve, though single readings can be large or run the other way.
measurement.name: Potency

Field: example entries. Status: answers known.
{"columns": ["molecule", "Potency"],
 "data": [
  ["C[C@H]1[C@H]2Cc3ccc(O)cc3[C@]1(C)CCN2CCc1ccccc1", "17.1 µM (active)"],
  ["O[C@H]1[C@H]2[C@H](O)CCCN2C[C@H]1O", "inactive"],
  ["CC(C)C[C@H](CN)CC(=O)O", "inactive"],
  ["COc1ccc(OC)c(C[C@H](C)N)c1", "inactive"],
  ["CC(=O)Oc1ccc2c3c1O[C@H]1[C@@H](OC(C)=O)C=C[C@H]4[C@@H](C2)N(C)CC[C@@]341", "inactive"]
]}

Query block: Bench note: what Potency did C[C@H]1CC[C@]2(NC1)O[C@H]1C[C@H]3[C@@H]4CC[C@H]5C[C@@H](O[C@@H]6O[C@H](CO)[C@H](O[C@@H]7O[C@H](CO)[C@@H](O)[C@H](O[C@@H]8OC[C@@H](O)[C@H](O)[C@H]8O)[C@H]7O[C@@H]7O[C@H](CO)[C@@H](O)[C@H](O)[C@H]7O)[C@H](O)[C@H]6O)CC[C@]5(C)[C@H]4CC[C@]3(C)[C@H]1[C@@H]2C show?
Result block: 2.37 µM (active)

Query block: Moving on to CC(C)CCC(=O)O[C@H]1CC[C@H]2[C@@H]3CCC4=CC(=O)CC[C@]4(C)[C@H]3CC[C@]12C
Result block: inactive

Query block: Moving on to CCC1C(C)=NN=C(c2ccc(OC)c(OC)c2)c2cc(OC)c(OC)cc21 (stereo not drawn)
Result block: inactive

Attribution: PubChem BioAssay (Tox21)
